Data credit: ChEMBL document CHEMBL5058577

# Population Fragmented Nuclei (%) per record follows
Test system: U2OS
Test method notes: Multiplex assay against U2OS
Type: toxicity, cell-based
Condition set: human, 12 h, 1 µM, compound concentration 1 uM, replicate 1
Write it as a number; the unit % goes unstated.

compound="Cl.NCCc1ccc(O)c(O)c1 [DOPAMINE HYDROCHLORIDE]" observation_type="Population Fragmented Nuclei (%)" reading_unit=% result_value=23

Query (compound): Cc1cnc(-c2cc(N3CCN(C(=O)CCS(C)(=O)=O)CC3)ncc2Cl)c(C)c1 ; field requested: Population Fragmented Nuclei (%)
37

Moving on to the next compound: CC(C)COc1ccc(CNC(=O)N(Cc2ccc(F)cc2)C2CCN(C)CC2)cc1
23

Moving on to the next compound: CN1CCN(c2cc(-c3ccccc3)nc(N)n2)CC1
32

Moving on to the next compound: CC(/C=C1\SC(=S)N(CCCC(=O)Nc2ccc(C(=O)O)c(O)c2)C1=O)=C\c1ccccc1
26

Moving on to the next compound: CN[C@@H](C)C(=O)N[C@H](C(=O)N1CCC[C@H]1C(=O)Nc1snnc1-c1ccccc1)C1CCCCC1
25
